- Protocol: High-throughput drug toxicity screening in the BPDCN cell line Cal-1 (AID 1224825);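 note: cells exposed to compounds for 48 h; 100% = DMSO and 0% = bortezomib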
- Condition Notes: Cal-1 BPDCN cell viability, qHTS; at 45.8 µM (top of the series) unless noted
Value Type: viability (% of control) (%)
Numbers only, in %.

Molecule	viability (% of control), %
CC=C1C2C=C(C)CC1(N)c1ccc(=O)[nH]c1C2 (stereo not given)	128
NCC1CCC(C(=O)O)CC1 (stereo not given)	115
OC(c1cc(C(F)(F)F)nc2c(C(F)(F)F)cccc12)C1CCCCN1 (stereo not given)	7.54
CC1(C)CC(=O)c2c(C(F)(F)F)nn(-c3ccc(C(N)=O)c(NC4CCC(O)CC4)c3)c2C1 (stereo not given)	13.5
O=C(c1ccc(F)c(F)c1Nc1ccc(I)cc1F)N1CC(O)([C@H]2CCCCN2)C1	2.16

# return viability (% of control) for each item in the list
1. CCCCc1ccc(NS(=O)(=O)c2ccc(C)c(C(=O)N3CCN(c4cccc(C)c4C)CC3)c2)cc1
2. COc1ccc(CCC(=O)Nc2nc3ccc(Cl)cc3s2)cc1OC
3. CN1CC(=O)NC1=NC(=O)Nc1cccc(Cl)c1
4. Cc1nn(Cc2ccccc2Cl)c(C)c1CN(C)CC(O)COc1ccc(Cl)cc1 (stereo not given)
5. CN1CCC[C@H]1CCO[C@](C)(c1ccccc1)c1ccc(Cl)cc1
6. CNC1CCC(N(Cc2cccc(-c3ccncc3)c2)C(=O)c2sc3ccccc3c2Cl)CC1 (stereo not given)

[99.3, 98.2, 31.9, 53.4, 50.8, 1.63]

# return viability (% of control) for each item in the list
1. O=S(=O)(O)c1ccc2cc(N=Nc3cc(S(=O)(=O)O)c4cccnc4c3O)ccc2c1
2. CN1CCN(c2ncc(-c3cc(Cl)cc(Cl)c3Cl)c(N)n2)CC1
3. CN(C)CCCNC(=O)c1ccc(-c2cc(O)c3ncccc3c2)cc1
4. COc1cccc(OC)c1-c1cc(C(=O)NC2(C(=O)O)C3CC4CC(C3)CC2C4)nn1-c1ccnc2cc(Cl)ccc12 (stereo not given)
5. CC1(C)C(N(O)C(=O)Nc2ccc(Cl)cc2)N(c2ccc(Cl)cc2)C(=O)N1CC(=O)NN=CC=Cc1ccc([N+](=O)[O-])o1 (stereo not given)

1: 89.1; 2: 22.1; 3: 19.6; 4: 128; 5: 2.85

* * *

- Tested on: ATS189
- Protocol: qHTS profiling for inhibitors of Plasmodium falciparum proliferation (AID 504749); note: nearly all actives have a fitted effect of over 60% in size
- Condition Notes: P. falciparum in erythrocytes, SYBR Green DNA, 72 h; series mostly up to 28.7 µM
Inconclusive results are not listed. Active and inactive are the calls of the source. The call rests on the fitted dose curve; in most records, active means well fitted inhibition curve with a large enough effect; inconclusive means small, poorly fitted or top-dose-only effect; inactive means flat fitted curve, though single readings scatter.
Your answer must be one of the following: Yes for active, No for inactive

>>> df
                                   compound  system_name  group_label
0  COc1cc2c(cc1OC)CC(=O)N(CCCN(C)C[C@H]1Cc3cc(OC)c(OC)cc31)CC2       ATS189           No
1  COc1c(C)c2c(c(O)c1CC=C(C)CCC(=O)OCCN1CCOCC1)C(=O)OC2       ATS189          Yes
2  COc1ccnc(CS(=O)c2nc3ccc(OC(F)F)cc3[nH]2)c1OC (stereo not given)       ATS189           No
3  CN1CCN2c3ncccc3Cc3ccccc3C2C1 (stereo not given)       ATS189           No

Shifting focus to the compound that follows.
Status in this test for O=C1C(CCC(O)c2ccc(F)cc2)C(c2ccc(O)cc2)N1c1ccc(F)cc1 (stereo not given) ?
No

* * *

- Protocol: qHTS of pediatric cancer cell lines to identify multiple opportunities for drug repurposing: Confirmatory screen for A673 cells (AID 1347110);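 note: cells exposed to compound for 48 h before the viability read; nearly all actives have a fitted effect of over 65% in size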
- Condition Notes: A673 Ewing sarcoma cell viability; series mostly up to 45.9 µM
Inconclusive results are not listed. Activity calls are given as the source filed them. Calls come from the whole dose curve; as a rule, active = well fitted cell-killing curve with a large enough effect; inconclusive = small, poorly fitted or top-dose-only effect; inactive = flat fitted curve, though single readings scatter.
Your answer must be one of the following: active, inactive

Status in this test for CC(C)(C)c1[nH]cnc1C=c1[nH]c(=O)c(=Cc2ccccc2)[nH]c1=O ?
active

Status in this test for CON(C)C(=O)N1N=C(c2cc(F)ccc2F)S[C@]1(CCCN)c1ccccc1 ?
active

Status in this test for Cc1csc(-c2nnc(Nc3ccc(Oc4ncccc4-c4ccnc(N)n4)cc3)c3ccccc23)c1 ?
active

Status in this test for Nc1ncnc2c1ncn2[C@@H]1O[C@H](CO)[C@@H](O)[C@@H]1O ?
inactive

Status in this test for CC1(C)OC2CC3C4CC(F)C5=CC(=O)C=CC5(C)C4C(O)CC3(C)[C@]2(C(=O)CO)O1 (some centres not stated) ?
inactive

Status in this test for CC1=C[C@@H]2[C@@H]([C@@H](O)C[C@@]3(C)[C@H]2C[C@@H](C)[C@]3(O)C(=O)CO)[C@@]2(C)Cc3cnn(-c4ccccc4)c3C=C12 ?
active

Status in this test for C[C@@H]1[C@H](O)[C@@H](C)C=CC=CC=CC=CC=CC=CC=C[C@H](O[C@@H]2O[C@H](C)[C@H](O)[C@H](N)[C@@H]2O)C[C@@H]2O[C@](O)(C[C@@H](O)C[C@@H](O)[C@H](O)CC[C@@H](O)C[C@@H](O)CC(=O)O[C@H]1C)C[C@H](O)[C@@H]2C(=O)O ?
inactive

* * *

- Protocol: Quantitative High-Throughput drug screen in 47 multiple myeloma cell lines against the NCATS MIPE library collection: ARD_JJKsccE7 cell viability assay (AID 1918929;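 for viability: 100% = DMSO-only wells and 0% = media-only wells without cells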)
- Condition Notes: ARD myeloma cell line viability, CellTiter-Glo, 48 h; series mostly up to 45.8 µM
Results filed as inconclusive are left out. Activity calls are given as the source filed them. The call rests on the fitted dose curve; in most records, active means well fitted cell-killing curve with a large enough effect; inconclusive means small, poorly fitted or top-dose-only effect, or effect the other way; inactive means no such curve, though single readings can be large or run the other way.
Your answer must be one of the following: active, inactive

>>> df
                                   compound  group_label
0  CN1CCN(c2cccc(Nc3nc4c(-c5ccc(S(C)(=O)=O)cc5)cccn4n3)c2)CC1       active
1  O=C(Nc1cccc(C(F)(F)F)c1)Nc1cc(S(=O)(=O)NC2CC2)ccc1-c1ccsc1     inactive
2     COc1ccc(C=CC(=O)Nc2ccccc2C(=O)O)cc1OC     inactive
3  CCCCCOC(=O)Nc1nc(=O)n([C@@H]2O[C@H](C)[C@@H](O)C2O)cc1F (some centres undefined)     inactive
4   O=c1cc(-c2ccc(O)c(O)c2)oc2cc(O)cc(O)c12     inactive
5  CC1=C[C@@H]2[C@@H]([C@@H](O)C[C@@]3(C)[C@H]2C[C@@H](C)[C@]3(O)C(=O)CO)[C@@]2(C)Cc3cnn(-c4ccccc4)c3C=C12       active

Status in this test for CC1(COc2ccc3c(c2)ncn3-c2ccc3cccc(N4CCC(N)CC4)c3n2)COC1 ?
active

Status in this test for C#C[C@]1(O)CC[C@H]2[C@H]3CCc4cc(OC)ccc4[C@H]3CC[C@@]21C ?
active

Status in this test for CCOC(=O)N1c2ccc(C(F)(F)F)cc2[C@@H](N(Cc2cc(C(F)(F)F)cc(C(F)(F)F)c2)C(=O)OC)C[C@H]1CC ?
inactive

* * *

- Protocol: qHTS of pediatric cancer cell lines to identify multiple opportunities for drug repurposing: Primary screen for U-2 OS cells (AID 1347096);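 note: plate controls were DMSO wells for no effect and bortezomib positive control wells for full effect; nearly all actives have a fitted effect of over 50% in size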
- Condition Notes: U-2 OS viability, CellTiter-Glo luminescence, 48 h; series mostly up to 46 µM
Records with an inconclusive call do not appear. Activity calls are given as the source filed them. The call rests on the fitted dose curve; in most records, active means well fitted cell-killing curve with a large enough effect; inconclusive means small, poorly fitted or top-dose-only effect; inactive means flat fitted curve, though single readings scatter.
Your answer must be one of the following: 1.0 (active), 0.0 (inactive)

Molecule	Group Label
CC(C)=CCCC(C)=CCCC(C)=CCCC(C)=CCCC(C)=CCCC(C)=CCCC(C)=CCCC(C)=CCCC(C)=CCO	0.0
CN[C@@H]1CN(c2ccc3c(=O)c(C(=O)O)cn(-c4nccs4)c3n2)C[C@@H]1OC	0.0
CC1(C)C(N(O)C(=O)Nc2ccc(Cl)cc2)N(c2ccc(Cl)cc2)C(=O)N1CC(=O)NN=CC=Cc1ccc([N+](=O)[O-])o1 (stereo not given)	0.0
Cc1c(-c2cccc3c(CCCOc4cccc5ccccc45)c(C(=O)O)n(Cc4cccnc4)c23)c(COc2ccc(N3CCN([S+](=O)([O-])N(C)C)CC3)cc2)nn1C	0.0
OC[C@H]1O[C@@H](O[C@H]2[C@@H](O)[C@@](O)(CO)O[C@@H]2CO)[C@H](O)[C@@H](O)[C@@H]1O	0.0

Shifting focus to the molecule that follows.
Status in this test for CCOc1ccccc1N=Nc1c(C)[nH]n(-c2nc(-c3ccccc3)cs2)c1=O ?
0.0

* * *

- Protocol: Quantitative High-Throughput drug screen in 47 multiple myeloma cell lines against the NCATS MIPE library collection: UTMC2_PLB cell viability assay (AID 1919868); note: nearly all actives have a fitted effect of over 55% in size; note: potency is the fitted concentration of half-maximal effect
- Condition Notes: CellTiter-Glo ATP luminescence, 48 h
Inconclusive results are not listed. Calls of active or inactive are those of the source. The call rests on the fitted dose curve; in most records, active means well fitted cell-killing curve with a large enough effect; inconclusive means small, poorly fitted or top-dose-only effect, or effect the other way; inactive means no such curve, though single readings can be large or run the other way.
Value Type: Potency

Answered examples (6):
                                   molecule           reported
0  CNC(=O)c1ccc2c(C(=Nc3cccc(CN(C)C)c3)c3ccccc3)c(O)[nH]c2c1   16.6 µM (active)
1  Cc1cnc(Nc2cccc(CN3CCOCC3)c2)nc1Nc1cccc(S(=O)(=O)NC(C)(C)C)c1   1.18 µM (active)
2  COc1cc([C@@H]2c3cc4c(cc3[C@@H](O[C@@H]3O[C@@H]5CO[C@@H](C)O[C@@H]5[C@H](O)[C@@H]3O)[C@H]3COC(=O)[C@H]23)OCO4)cc(OC)c1O  0.418 µM (active)
3     COC(=O)[C@H](c1ccccc1Cl)N1CCc2sccc2C1           inactive
4  CCNC(=O)CCCC=CC[C@@H]1[C@H](C=CC(O)CCc2ccccc2)[C@@H](O)C[C@@H]1O (some centres undefined)           inactive
5  N#Cc1c(N(CC(=O)O)CC(=O)O)sc(C(=O)O)c1CC(=O)O   23.5 µM (active)

# return Potency for each item in the list
1. CC1=C(CC(=O)O)c2cc(F)ccc2C1=Cc1ccc(S(C)=O)cc1 (centres undefined)
2. CC(C)C[C@@H](C(=O)N[C@H](C(=O)OC1CCCC1)c1ccccc1)[C@H](O)C(=O)NO
3. CCC(=O)NCC[C@@H]1CCc2ccc3c(c21)CCO3
4. Cc1cccc(Nc2nc(N[C@@H]3CCCC[C@H]3N)ncc2C(N)=O)c1

1. 18.7 µM (active)
2. 16.6 µM (active)
3. inactive
4. 9.35 µM (active)

# return Potency for each item in the list
1. Nc1ncnc2c1c(-c1cccc(OCc3ccccc3)c1)cn2C1CC(CN2CCC2)C1 (centres undefined)
2. Nc1ccn([C@@H]2O[C@H](CO)[C@@H](O)[C@H]2O)c(=O)n1
3. CN(C)CCOc1cc(-c2cn[nH]c2)ccc1NC(=O)C1COc2ccccc2O1 (centres undefined)
4. Cc1ccc(NC(=O)Nc2cc(C(F)(F)F)ccc2F)cc1Nc1ccc2c(c1)NC(=O)C2=Cc1ccc[nH]1

["0.166 µM (active)", "0.001 µM (active)", "6.62 µM (active)", "8.33 µM (active)"]

# return Potency for each item in the list
1. CC(=O)N1CCN(c2ccc(OCc3nn(C)c(C)c3-c3cccc4c(CCCOc5cc(C)c(Cl)c(C)c5)c(C(=O)O)n(Cc5cccnc5)c34)cc2)CC1
2. CN1C(=O)C(Cc2c[nH]c3ccccc23)NC1=S (centres undefined)
3. CNC1CCC(N(Cc2cccc(-c3ccncc3)c2)C(=O)c2sc3ccccc3c2Cl)CC1 (centres undefined)
4. CCC[C@H](Nc1nc(-c2ccc(NC(=O)NCC)c(OC)c2)ncc1C)c1cccnc1
5. O=C(Nc1ccc(OC(F)(F)F)cc1)c1sccc1NCc1ccnc2ccccc12

1. 7.43 µM (active)
2. 2.96 µM (active)
3. 10.5 µM (active)
4. 0.001 µM (active)
5. 23.5 µM (active)
